Values compiled from the supplement of paper PMC13380429.

Test system: Vero E6 infected with SARS-CoV-2
Assay: inhibition of SARS-CoV-2 cytopathic effect; higher = more antiviral protection, active = above 15
Details: 833.33 nM; 48 h
Parameter: inhibition of SARS-CoV-2 cytopathic effect. Scope: all listed entries.
experimental-readout: inhibition of SARS-CoV-2 cytopathic effect (%)

> print(dat)
                                    molecule  unit.of.measurement    val
 1  O=C1NC(=O)/C(=C/c2ccc(-c3ccc(F)cc3O)o2)S1                    %  -1.39
 2  CC(=O)CC/C=C(\C)CC/C=C(\C)CC/C=C(\C)CCC=C(C)C                    %   1.98
 3         N#Cc1ccc(-c2csc(NN=C3CCCC3)n2)cc1                    %   0.48
 4  CCN(CC)CCCC(C)Nc1c2ccc(Cl)cc2nc2ccc(OC)cc12 (stereo not given)                    %   5.16
 5                CCC1(c2ccccc2)C(=O)NCNC1=O                    %   0.53
 6          Cn1cnc2c(NCc3ccccc3)nc(NCCO)nc21                    %  -0.46
 7  CC(C)(O)CC(=O)O [beta-hydroxy-beta-methylbutyrate]                    %   -3.9
 8  C=CC1=C(C)C2=CC3=NC(=C(CC(=O)O)C4=NC(=C(C)C4=C(O)O)C=c4[nH]c(c(C)c4CC)=CC1=N2)C(CCC(=O)O)C3C (stereo not given)                    %  -4.38
 9      O=C(COc1cccc2c(=O)[nH]ccc12)c1ccccc1                    %  -0.52
10  CCCNC(=O)Nc1ccc(Oc2ncnc3cc(OC)c(OC)cc23)cc1Cl                    %   0.47

====

Reported morphology score by item:
System: Vero E6 infected with SARS-CoV-2
Assay: morphology score (similarity to uninfected cells); higher = more like uninfected cells
Conditions: 24 h
experimental-readout: morphology score

> print(dat)
                                    compound  experimental.readout      val
 1  CN(C)C(=O)COC(=O)Cc1ccc(OC(=O)c2ccc(NC(=N)N)cc2)cc1 [camostat-mesilate] (10 µM)      morphology score   0.0997
 2  Cc1cc(C(=O)Nc2cc(Oc3ccc4nc(NC(=O)C5CC5)cn4n3)ccc2C)n(C)n1 (10 µM)      morphology score    0.227
 3  O=C(O)Cc1cccc(OCCCN(Cc2cccc(C(F)(F)F)c2Cl)CC(c2ccccc2)c2ccccc2)c1 (10 µM)      morphology score    0.267
 4  CCCCS(=O)(=O)N[C@@H](Cc1ccc(OCCCCC2CCNCC2)cc1)C(=O)O [tirofiban] (10 µM)      morphology score   0.0487
 5  Clc1ccc(C(c2ccccc2Cl)C(Cl)Cl)cc1 (configuration not stated) [mitotane] (10 µM)      morphology score   -0.173
 6  Cc1cc([N+](=O)[O-])ccc1NS(=O)(=O)c1cc(Cl)ccc1Cl (0.833333 µM)      morphology score    0.153
 7  CCCn1c(=O)c2nc(C34CC5CC(CC3C5)C4)[nH]c2n(CCC)c1=O (10 µM)      morphology score    0.134
 8  O=S(=O)(c1ccccc1)N(CC(F)(F)F)c1ccc(C(O)(C(F)(F)F)C(F)(F)F)cc1 (10 µM)      morphology score   0.0275
 9  C=C1CC[C@@]2(O)[C@H]3Cc4ccc(O)c5c4[C@@]2(CCN3CC2CC2)[C@H]1O5 [nalmefene] (10 µM)      morphology score  -0.0409
10  CCc1cc(Cl)c(OC)c(C(=O)NC[C@@H]2CCCN2CC)c1O [eticlopride] (10 µM)      morphology score    0.426
11  Cc1c(C(=O)NN2CCCCC2)nn(-c2ccc(Cl)cc2Cl)c1-c1ccc(I)cc1 (10 µM)      morphology score    0.254
12  COc1cc2c(cc1OC)-c1cc3ccc(OC)c(OC)c3c[n+]1CC2 [palmatine-chloride] (10 µM)      morphology score    0.189
13  NC/C(=C/F)CCc1ccc(F)cc1 [mofegiline] (10 µM)      morphology score  -0.0471
14  N=C1CCCN1Cc1[nH]c(=O)[nH]c(=O)c1Cl [tipiracil] (10 µM)      morphology score  -0.0802
15  CN(C)CCCn1cc(C2=C(c3c[nH]c4ccccc34)C(=O)NC2=O)c2ccccc21 (0.833333 µM)      morphology score  -0.0102
16  CCN(CC)CCCCC1CCN(CC(=O)N2c3ccccc3C(=O)Nc3cccnc32)CC1 (10 µM)      morphology score   0.0682
17  CCOC(=O)c1ccc(N(C)c2csc(-c3ccccc3)n2)cc1 [neuropathiazol] (10 µM)      morphology score  -0.0531

====

Catalogue of SARS-CoV-2 infection rate values
Test system: Vero E6 infected with SARS-CoV-2
Assay: SARS-CoV-2 infection rate relative to infected DMSO; higher = more infection, active = 60 or less
Conditions: 24 h
experimental-readout: SARS-CoV-2 infection rate (%)

compound	experimental-readout	val
CC(C)(C)c1cc(NC(=O)Nc2ccc(-c3cn4c(n3)sc3cc(OCCN5CCOCC5)ccc34)cc2)no1 [quizartinib] (10 µM)	SARS-CoV-2 infection rate	97.5
CN1C(=O)N(c2cc(Cl)cc(Cl)c2)C(=O)[C@]12CN(c1ccc(C(=O)O)cn1)C[C@H]2c1ccc(C#N)cc1 (10 µM)	SARS-CoV-2 infection rate	114
COc1ccc(-c2cnc3c(-c4cccc5ncccc45)cnn3c2)cc1 (10 µM)	SARS-CoV-2 infection rate	100
C[C@]12CCC(=O)C=C1CC[C@@H]1[C@@H]2CC[C@@]2(C)[C@H]1CC[C@]2(O)C(=O)CO [cortodoxone] (10 µM)	SARS-CoV-2 infection rate	98
CCc1ccc(Cc2ccc3c(c2)[C@]2(OC3)O[C@H](CO)[C@@H](O)[C@H](O)[C@H]2O)cc1 [tofogliflozin] (10 µM)	SARS-CoV-2 infection rate	94.5
CCC(=O)O[C@H]1[C@H](O[C@@H]2[C@@H](C)[C@H](O[C@H]3C[C@@](C)(OC)[C@@H](O)[C@H](C)O3)[C@@H](C)C(=O)O[C@H](CC)[C@@](C)(O)[C@H](O)[C@@H](C)C(=O)[C@H](C)C[C@@]2(C)O)O[C@H](C)C[C@@H]1N(C)C [erythromycin-estolate] (10 µM)	SARS-CoV-2 infection rate	114
C/C(=C\C(=O)Nc1ccccc1C(=O)O)c1ccc2ccccc2c1 (10 µM)	SARS-CoV-2 infection rate	103
COc1ccc(S(=O)(=O)N(C(C)=O)c2ccccc2/C=C/c2cc[n+]([O-])cc2)cc1 (10 µM)	SARS-CoV-2 infection rate	93.5
CCCCS(=O)(=O)N[C@@H](Cc1ccc(OCCCCC2CCNCC2)cc1)C(=O)O [tirofiban] (10 µM)	SARS-CoV-2 infection rate	110
O=[N+]([O-])/C=C/c1ccc2c(c1)OCO2 [3,4-methylenedioxy-beta-nitrostyrene] (10 µM)	SARS-CoV-2 infection rate	41
Cc1ccc(NC(=O)c2ccc(CN3CCN(C)CC3)cc2)cc1Nc1nccc(-c2cccnc2)n1 [imatinib] (10 µM)	SARS-CoV-2 infection rate	37
CCCc1nn(C)c2c(=O)[nH]c(-c3cc(S(=O)(=O)N4CCN(C)CC4)ccc3OCC)nc12 [sildenafil] (10 µM)	SARS-CoV-2 infection rate	109
COc1cc(OC)c(NC(=O)Nc2cc(C)on2)cc1Cl (10 µM)	SARS-CoV-2 infection rate	87
CC1=C(/C=C/C(C)=C/C=C/C(C)=C/C(=O)Nc2ccc(O)cc2)C(C)(C)CCC1 [fenretinide] (10 µM)	SARS-CoV-2 infection rate	116

====

Tested on: Vero E6 infected with SARS-CoV-2
Experiment: inhibition of SARS-CoV-2 cytopathic effect; higher = more antiviral protection, active = above 15
Details: 100 nM; 48 h
Reported inhibition of SARS-CoV-2 cytopathic effect by item:
experimental-readout: inhibition of SARS-CoV-2 cytopathic effect (%)

> print(dat)
                                    molecule    val
 1  CCOc1ccc(NC(=S)N2CCC(C(O)(c3ccccc3)c3ccccc3)CC2)cc1  -2.48
 2  COc1cc(N2CCN(C)CC2)ccc1Nc1nccc(-c2cn(C)c3cnccc23)n1   2.63
 3  OC[C@H]1O[C@H]([S-])[C@H](O)[C@@H](O)[C@@H]1O.[Au+] [aurothioglucose]   -0.3
 4                      CC(=N)NCc1cccc(CN)c1  -0.18
 5      O=C(O)[C@H](Cc1ccccc1)NCc1ccc(Cl)cc1  -0.99
 6                                O=C(O)CCCO   2.71
 7  C[C@]1(Cn2ccnn2)[C@H](C(=O)O)N2C(=O)C[C@H]2S1(=O)=O [tazobactam]   2.92
 8  CC(C)CCNC(=O)[C@H](CC(C)C)NC(=O)[C@H]1O[C@@H]1C(=O)O [loxistatin-acid]  -0.89
 9  CC(O)CC(=O)O (stereo not drawn) [beta-hydroxybutyrate]  -2.77
10  CN(C)CCCN1c2ccccc2Sc2ccc(Cl)cc21 [chlorpromazine]    1.5
11  Cc1cnc(-c2ccccc2C(C)C)nc1NCc1ccc(-n2ccnn2)cc1  -0.44
12  Cc1ccccc1/N=N/c1ccc(/N=N/c2c(O)ccc3ccccc23)c(C)c1 [sudan-IV]  -4.36
13  Cc1cccc(C)c1OCC(=O)N[C@@H](Cc1ccccc1)[C@@H](O)C[C@H](Cc1ccccc1)NC(=O)[C@H](C(C)C)N1CCCNC1=O [Lopinavir]   0.62
14  CCOC(=O)[C@H]1O[C@@H]1C(=O)N[C@@H](CC(C)C)C(=O)NCCC(C)C [aloxistatin]   0.39
15      O=C(COc1cccc2c(=O)[nH]ccc12)c1ccccc1   -0.2
16       CCCCCCCCCCCCCCCCCCCCCCO [docosanol]  -10.4
17  CC(=O)NCC(=O)N1[C@@H]2CC[C@H]1c1ccc(Nc3ncc(C(F)(F)F)c(NC4CCC4)n3)cc12  -2.99
18          Cc1[nH]c2ccccc2c1CCNC(=O)c1cccs1  -2.69
19  O=C(CN1CCN(Cc2ccc3c(c2)OCO3)CC1)N1c2ccccc2Sc2ccccc21 [fenoverine]   4.98
20  O=C(O)CCCN1C(=O)c2cccc3cccc(c23)C1=O [isodibut]   -4.8
